test system: 317291-083-R-J1-PDC complex spheroids, viability; test: Anticancer human tumor 317291-083-R-J1-PDC patient-derived soft tissue sarcoma cell line growth inhibition [GQUAD]; conditions: second compound 3.16 µM; first compound 0.1 µM; stronger effect = lower value
Below: a set of entries, each annotated with reported viability, T/C.
Give the number; % is assumed, so skip it.

Value sought: viability, T/C, system 317291-083-R-J1-PDC complex spheroids, viability, item CCCS(=O)(=O)Nc1ccc(F)c(C(=O)c2c[nH]c3ncc(-c4ccc(Cl)cc4)cc23)c1F + CN(C)c1ccc(Nc2c3ccc(NC(=O)CCN4CCCC4)cc3nc3cc(NC(=O)CCN4CCCC4)ccc23)cc1 . Result: 0.71

Note to self: viability, T/C of CCCS(=O)(=O)Nc1ccc(F)c(C(=O)c2c[nH]c3ncc(-c4ccc(Cl)cc4)cc23)c1F + Cc1cnc(CNC(=O)c2c(=O)c3ccc(N4CCCN(C)CC4)nc3n3c2sc2ccccc23)cn1 with 317291-083-R-J1-PDC complex spheroids, viability was 11.7

viability, T/C of CC(C)n1c(=O)n(C)c2cnc3cc(F)c(-c4ccc(OCCCN5CCCCC5)nc4)cc3c21 + Cc1[nH]c2ccc(F)cc2c1-c1nc2c3cccnc3c3ncccc3c2[nH]1 , assay on 317291-083-R-J1-PDC complex spheroids, viability, is 103

// returns viability, T/C for CCCS(=O)(=O)Nc1ccc(F)c(C(=O)c2c[nH]c3ncc(-c4ccc(Cl)cc4)cc23)c1F + Cc1[nH]c2ccc(F)cc2c1-c1nc2c3cccnc3c3ncccc3c2[nH]1 with 317291-083-R-J1-PDC complex spheroids, viability; value = 26.5

***
Log: 317291-083-R-J1-PDC complex spheroids, viability, compound O=C(c1cc(Cc2n[nH]c(=O)c3ccccc23)ccc1F)N1CCN(C(=O)C2CC2)CC1 + Cc1[nH]c2ccc(F)cc2c1-c1nc2c3cccnc3c3ncccc3c2[nH]1 , viability, T/C = 82.9

# value of viability, T/C, 317291-083-R-J1-PDC complex spheroids, viability, item COc1ncnc(C2CC2)c1-c1ncc2cnn(Cc3ccc(-c4nc(C(F)(F)F)cn4C(C)C)cc3)c2n1 + Cc1cnc(CNC(=O)c2c(=O)c3ccc(N4CCCN(C)CC4)nc3n3c2sc2ccccc23)cn1 = 13.6

Summary: O=C(c1cc(Cc2n[nH]c(=O)c3ccccc23)ccc1F)N1CCN(C(=O)C2CC2)CC1 + CN(C)c1ccc(Nc2c3ccc(NC(=O)CCN4CCCC4)cc3nc3cc(NC(=O)CCN4CCCC4)ccc23)cc1 , 317291-083-R-J1-PDC complex spheroids, viability, viability, T/C = 27.9

Value (viability, T/C, 317291-083-R-J1-PDC complex spheroids, viability) for record Cc1cccc(N(C)C(=O)C2C(O)CCN2c2nc(C)cc(C(F)(F)F)c2C#N)c1 (stereo not given) + Cc1cnc(CNC(=O)c2c(=O)c3ccc(N4CCCN(C)CC4)nc3n3c2sc2ccccc23)cn1 = 22.3

---

test system: 317291-083-R-J1-PDC complex spheroids, viability; assay: Anticancer human tumor 317291-083-R-J1-PDC cell line growth inhibition [GQUAD]; conditions: second compound 10 µM; first compound 1 µM; active = viability on the fitted dose curve at most 10% of control; inactive = the rest;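 note: spheroids exposed to compounds for one week before readout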
Reply using exactly one outcome from Yes (active), No (inactive)

Use the examples below as a reference point.
Query: # outcome recorded in this test, key = C=CC(=O)N1CCN(c2nc(=O)n(-c3c(C)ccnc3C(C)C)c3nc(-c4c(O)cccc4F)c(F)cc23)C(C)C1 (configuration not stated) + Cc1cnc(CNC(=O)c2c(=O)c3ccc(N4CCCN(C)CC4)nc3n3c2sc2ccccc23)cn1
Response: No

Query: Can you look up the reported call for COc1ncnc(C2CC2)c1-c1ncc2cnn(Cc3ccc(-c4nc(C(F)(F)F)cn4C(C)C)cc3)c2n1 + CN(C)c1ccc(Nc2c3ccc(NC(=O)CCN4CCCC4)cc3nc3cc(NC(=O)CCN4CCCC4)ccc23)cc1 for me?
Response: Yes

Query: Recorded call for Cc1cccc(N(C)C(=O)C2C(O)CCN2c2nc(C)cc(C(F)(F)F)c2C#N)c1 (configuration not stated) + Cc1[nH]c2ccc(F)cc2c1-c1nc2c3cccnc3c3ncccc3c2[nH]1 ?
Response: No

Next:
Query: # outcome recorded in this test, key = CC1COCCN1c1cc(-c2ccnn2C)c2ccnc(-c3ccn[nH]3)c2n1 (configuration not stated) + Cc1[nH]c2ccc(F)cc2c1-c1nc2c3cccnc3c3ncccc3c2[nH]1
Response: No

---

test system: 317291-083-R-J1-PDC complex spheroids, viability; experiment: Anticancer human tumor 317291-083-R-J1-PDC cell line growth inhibition [GQUAD]; conditions: second compound 0.1 µM; first compound 3.16 µM; stronger effect = lower value;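 note: spheroids exposed to compounds for one week before readout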;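 for viability, T/C: percent viability relative to DMSO vehicle wells taken as 100%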
Rule: measured viability, T/C below 80% gets met; anything equal to or greater than 80% gets not met.

Some entries whose results are on file:
Query: Decide: viability, T/C of O=c1[nH]cc(F)c(=O)[nH]1 + CN(C)c1ccc(Nc2c3ccc(NC(=O)CCN4CCCC4)cc3nc3cc(NC(=O)CCN4CCCC4)ccc23)cc1 strictly below 80%?
Response: met

Query: State whether 80% exceeds viability, T/C recorded for CC(C)n1c(=O)n(C)c2cnc3cc(F)c(-c4ccc(OCCCN5CCCCC5)nc4)cc3c21 + CN(C)c1ccc(Nc2c3ccc(NC(=O)CCN4CCCC4)cc3nc3cc(NC(=O)CCN4CCCC4)ccc23)cc1 .
Response: met

Query: Please determine if O=C(c1cc(Cc2n[nH]c(=O)c3ccccc23)ccc1F)N1CCN(C(=O)C2CC2)CC1 + Cc1[nH]c2ccc(F)cc2c1-c1nc2c3cccnc3c3ncccc3c2[nH]1 is below 80% in terms of viability, T/C.
Response: not met

Query: Input O=C(c1cc(Cc2n[nH]c(=O)c3ccccc23)ccc1F)N1CCN(C(=O)C2CC2)CC1 + CN(C)c1ccc(Nc2c3ccc(NC(=O)CCN4CCCC4)cc3nc3cc(NC(=O)CCN4CCCC4)ccc23)cc1 ; condition: viability, T/C strictly below 80%. Does it hold?
Response: met

More entries:
Query: I'd appreciate it if you could check whether COc1ccc([C@@H](O)c2cc(-c3ncnc4cc(N5CCOCC5)ccc34)c(F)cc2Cl)nn1 + CN(C)c1ccc(Nc2c3ccc(NC(=O)CCN4CCCC4)cc3nc3cc(NC(=O)CCN4CCCC4)ccc23)cc1 has viability, T/C smaller than 80%.
Response: met

---

tested on: 317291-083-R-J1-PDC complex spheroids, viability; assay: Anticancer human tumor 317291-083-R-J1-PDC cell line growth inhibition [GQUAD]; settings: second compound 10 µM; first compound 0.1 µM; stronger effect = lower value;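 note: spheroids exposed to compounds for one week before readout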;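 for viability, T/C: percent viability relative to DMSO vehicle wells taken as 100%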
Here, each record is paired with measured viability, T/C data.
Kindly provide the numeric value in % only, without the unit symbol.

Worked examples follow.
Value of measured viability, T/C for the entry Nc1ccn(C2OC(CO)C(O)C2(F)F)c(=O)n1 (stereo not drawn) + Cc1cnc(CNC(=O)c2c(=O)c3ccc(N4CCCN(C)CC4)nc3n3c2sc2ccccc23)cn1 : 24.9

// recorded viability, T/C for C=CCn1c(=O)c2cnc(Nc3ccc(N4CCN(C)CC4)cc3)nc2n1-c1cccc(C(C)(C)O)n1 + Cc1[nH]c2ccc(F)cc2c1-c1nc2c3cccnc3c3ncccc3c2[nH]1 : 21.5

Further cases:
The molecule listed as CC(C)(O)C1CCC(Nc2ccc3ncc(-c4cccc(C(F)(F)F)c4)n3n2)CC1 (stereo not drawn) + Cc1[nH]c2ccc(F)cc2c1-c1nc2c3cccnc3c3ncccc3c2[nH]1 shows viability, T/C equal to 38.6

---

Test system: 317291-083-R-J1-PDC complex spheroids, viability
Assay: Anticancer human tumor 317291-083-R-J1-PDC cell line growth inhibition [GQUAD];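 note: spheroids exposed to compounds for one week before readout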
Conditions: curve of first compound; second compound 10 µM
From the text: DNA G-quadruplex Stabilizer Agents in Combinations in Complex Spheroids A high-throughput screen of multi-cell type tumor spheroids was designed to identify active combinations of DNA G-quadruplex stabilizer agents and targeted small molecules. […] Compounds. […] If the clinical Cmax for an agent had not been determined, the highest concentration tested was 10 microM. […]
pIC50: −log10 of the molar value.
measured_quantity: pIC50

Examples with answers:
Short answer on 317291-083-R-J1-PDC complex spheroids, viability for CC(=O)O[C@H]1C(=O)[C@@]2(C)[C@H]([C@H](OC(=O)c3ccccc3)[C@]3(O)C[C@H](OC(=O)[C@H](O)[C@@H](NC(=O)c4ccccc4)c4ccccc4)C(C)=C1C3(C)C)[C@]1(OC(C)=O)CO[C@@H]1C[C@@H]2O + Cc1[nH]c2ccc(F)cc2c1-c1nc2c3cccnc3c3ncccc3c2[nH]1 , pIC50: > 7.50

With 317291-083-R-J1-PDC complex spheroids, viability as the test system, O=c1[nH]cc(F)c(=O)[nH]1 + Cc1cnc(CNC(=O)c2c(=O)c3ccc(N4CCCN(C)CC4)nc3n3c2sc2ccccc23)cn1 showed pIC50 of > 7.50

***
Observed pIC50 on 317291-083-R-J1-PDC complex spheroids, viability, entry CC(C)n1c(=O)n(C)c2cnc3cc(F)c(-c4ccc(OCCCN5CCCCC5)nc4)cc3c21 + Cc1[nH]c2ccc(F)cc2c1-c1nc2c3cccnc3c3ncccc3c2[nH]1 , equals < 5.00

Where do the numbers come from? From PubChem BioAssay AID2060497.
